# Test name: photoluminescence quantum yield (fraction); solvent given as SMILES
# Assay setup: in CC(C)O
Parameter: photoluminescence quantum yield

Value lookup for photoluminescence quantum yield; key = CN(C)c1ccc(/C=C2\CC/C(=C\c3ccc(C#N)cc3)C2=O)cc1 0.026

Value lookup for photoluminescence quantum yield; key = O=S(=O)([O-])c1ccc(O)c2ccccc12 0.2

Value lookup for photoluminescence quantum yield; key = Cc1ccc2sc3cc(CCC(=O)O)ccc3c(=O)c2c1 0.054

Value lookup for photoluminescence quantum yield; key = CN(C)c1ccc(/C=C/C=C2\CC/C(=C\c3ccc(N(C)C)cc3)C2=O)cc1 0.33

Value lookup for photoluminescence quantum yield; key = Nc1ccc2c3c(cccc13)C(=O)c1ccccc1-2 0.03

Value lookup for photoluminescence quantum yield; key = O=c1ccc2cc3c(cc2o1)OCC3 0.23
